pIC50: −log10 of the molar value.
Data export: pIC50 values recorded with Nitric oxide synthase 3 (Homo sapiens).
Sequence (P29474 whole entry): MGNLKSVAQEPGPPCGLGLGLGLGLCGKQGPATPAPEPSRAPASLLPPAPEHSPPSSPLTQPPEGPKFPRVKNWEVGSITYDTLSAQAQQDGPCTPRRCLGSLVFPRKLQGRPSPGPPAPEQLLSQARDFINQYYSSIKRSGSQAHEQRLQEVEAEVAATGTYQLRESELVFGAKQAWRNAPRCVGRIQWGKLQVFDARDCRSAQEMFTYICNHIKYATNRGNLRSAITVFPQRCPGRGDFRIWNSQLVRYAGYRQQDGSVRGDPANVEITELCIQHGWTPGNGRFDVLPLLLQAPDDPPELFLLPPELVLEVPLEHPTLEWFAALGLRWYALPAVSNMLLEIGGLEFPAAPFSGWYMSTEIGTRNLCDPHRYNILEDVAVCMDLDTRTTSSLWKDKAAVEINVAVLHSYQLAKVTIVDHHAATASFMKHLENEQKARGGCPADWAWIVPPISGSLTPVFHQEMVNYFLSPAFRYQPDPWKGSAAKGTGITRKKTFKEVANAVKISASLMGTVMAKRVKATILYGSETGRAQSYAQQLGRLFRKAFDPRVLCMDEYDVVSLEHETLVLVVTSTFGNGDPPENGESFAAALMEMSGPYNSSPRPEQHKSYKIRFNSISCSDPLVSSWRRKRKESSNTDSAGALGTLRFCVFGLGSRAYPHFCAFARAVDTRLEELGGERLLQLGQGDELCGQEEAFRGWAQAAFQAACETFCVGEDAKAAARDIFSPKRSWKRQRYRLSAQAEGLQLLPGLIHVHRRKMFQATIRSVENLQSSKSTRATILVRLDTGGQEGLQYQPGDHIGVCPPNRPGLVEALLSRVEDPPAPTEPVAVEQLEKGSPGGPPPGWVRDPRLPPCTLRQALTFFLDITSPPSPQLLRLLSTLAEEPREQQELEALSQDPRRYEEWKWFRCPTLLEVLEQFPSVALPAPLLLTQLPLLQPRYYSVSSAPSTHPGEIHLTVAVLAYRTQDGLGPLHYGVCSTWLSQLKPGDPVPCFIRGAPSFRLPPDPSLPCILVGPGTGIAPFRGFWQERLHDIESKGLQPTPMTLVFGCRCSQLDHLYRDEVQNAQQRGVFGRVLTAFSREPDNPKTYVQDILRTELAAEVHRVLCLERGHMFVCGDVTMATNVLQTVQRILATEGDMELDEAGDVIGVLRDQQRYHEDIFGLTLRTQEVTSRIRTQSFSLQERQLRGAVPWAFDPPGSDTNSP
property-measured: pIC50

These solved cases illustrate the format of a correct answer.
{"columns": ["smiles-text", "pIC50"],
 "data": [
  ["N=C(N)NN", 3.30],
  ["Nc1cc2c(cn1)CCCC2", 4.78],
  ["Cc1cc(N)nc2c1CCCC2", 4.70],
  ["Cc1cc(N)nc(CC(C)C)c1", 6.82],
  ["Cc1cc(N)nc(C(C)C)c1", 6.70]
]}

a. Cc1cnc(N)c(C)c1
b. Nc1nccc2c1CCCC2
c. CC(=N)NCCCC[C@H](N)C(=O)O
d. Cc1cnc(N)cc1C
*Q* Arrange by pIC50, high to low. Thanks in advance for listing the labels in the requested order.
*A* d, a, c, b
(d: 6.22, a: 5.44, c: 5.10, b: 4.62)

P. CCc1cnc(N)cc1C
Q. CCc1cc(C)cc(N)n1
*Q* Out of P and Q , name the one with the higher pIC50. Label of pick, please.
*A* Q

Provenance of the data: ChEMBL document CHEMBL1133138
